# test.system: Gal-4-PPAR (human PPAR LBD fused to GAL4 DNA-binding domain) (Homo sapiens (Human), UniProt P37231)
# assay.text: GAL4-PPARG LBD / UAS-luciferase transactivation assay in HEK 293T cells
# Type: cell-based
# protocol.conditions: GAL4 transactivation, HEK 293T cells; NA = not active; read-out: EC50 (nM) GAL4
measurement.type: EC50 (nM)
Express it in nM; write the number only.

* Cc1c(C)n(Cc2ccc(-c3ccccc3C(=O)O)cc2)c2ccc(C(=O)N[C@H](C)c3ccnc(C4CC4)c3)cc12 [Example 270] | 686
* Cc1c(C)n(Cc2ccc(-c3ccccc3-c3nnn[nH]3)cc2)c2ccc(C(=O)N[C@@H](C)c3cccc(C4CC4)c3)cc12 [Example 188] | 3150

Consider the record given below.
So what does the record say about EC50 for Cc1c(C)n(Cc2ccc(-c3ccccc3C(=O)O)cc2)c2ccc(C(=O)N[C@@H](C)c3ccc(OC(F)(F)F)cc3)cc12 [Example 153] ?
4160

###

# test.system: GST-PPARG-LBD (Homo sapiens (Human), UniProt P37231)
# Sequence (P37231 238-503): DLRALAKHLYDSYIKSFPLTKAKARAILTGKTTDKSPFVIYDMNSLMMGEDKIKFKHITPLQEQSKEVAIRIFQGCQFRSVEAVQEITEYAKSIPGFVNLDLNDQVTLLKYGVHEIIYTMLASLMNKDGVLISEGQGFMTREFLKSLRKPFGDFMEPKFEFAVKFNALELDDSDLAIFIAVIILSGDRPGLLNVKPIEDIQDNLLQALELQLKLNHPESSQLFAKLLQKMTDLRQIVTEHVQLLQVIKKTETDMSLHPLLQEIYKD
# assay.text: Lanthascreen PPARG competitive binding assay (Invitrogen, TR-FRET)
# protocol.conditions: Lanthascreen competitive binding; NA = not active; inc = incomplete curve; read-out: IC50 (nM) Lantha
Measured IC50 of individual entries
Express it in nM; write the number only.

* Cc1c(C)n(Cc2ccc(-c3ccccc3C(=O)O)cc2)c2ccc(C(=O)NCc3ccc(S(N)(=O)=O)cc3)cc12 [compound 17] | 300
* Cc1c(C)n(Cc2ccc(-c3ccccc3-c3noc(=O)[nH]3)cc2)c2ccc(C(=O)N[C@@H](C)c3cccc(C(C)C)c3)cc12 [Example 244] | 40

Consider the record given below.
So what does the record say about IC50 for Cc1c(C)n(Cc2ccc(-c3ccccc3C(=O)O)cc2)c2ccc(C(=O)N[C@H](C)c3cccc(Cl)c3Cl)cc12 [Example 171] ?
5

###

# test.system: GST-PPARG-LBD (Homo sapiens (Human))
# assay.text: Lanthascreen PPARG competitive binding assay (Invitrogen, TR-FRET)
# protocol.conditions: Lanthascreen competitive binding; NA = not active; inc = incomplete curve; read-out: IC50 (nM) Lantha
For each record, check the reported IC50: if it is below 40 nM write Criterion met, else write Criterion not met.

* CCc1ccc([C@H](C)NC(=O)c2ccc3c(c2)c(C)c(C)n3Cc2ccc(-c3ccccc3C(=O)O)cc2)cc1 | Criterion not met
* Cc1c(C)n(Cc2ccc(-c3ccccc3C(=O)O)cc2)c2ccc(C(=O)NC3CCCC3)cc12 | Criterion met
* CCOc1cccc([C@H](C)NC(=O)c2ccc3c(c2)c(C)c(C)n3Cc2ccc(-c3ccccc3C(=O)O)cc2)c1 | Criterion met
* Cc1c(C)n(Cc2ccc(-c3ccccc3C(=O)O)cc2)c2ccc(C(=O)N[C@@H](C)c3ccc(C(F)(F)F)c(F)c3)cc12 | Criterion not met
* Cc1c(C)n(Cc2ccc(-c3ccccc3C(=O)O)cc2)c2ccc(C(=O)N[C@@H](C)c3cccc(C(F)(F)F)c3Cl)cc12 | Criterion not met

Consider Cc1c(C)n(Cc2ccc(-c3ccccc3C(=O)O)cc2)c2ccc(C(=O)NCc3ccc4c(c3)OCO4)cc12 . Does its IC50 lie strictly below 40 nM?
Criterion met

Consider COc1cc(C(F)(F)F)ccc1[C@H](C)NC(=O)c1ccc2c(c1)c(C)c(C)n2Cc1ccc(-c2ccccc2C(=O)O)cc1 . Does its IC50 lie strictly below 40 nM?
Criterion not met
